test_target: T1, Recombinant hIL-21-Fc (AcroBiosystems) (human, UniProt Q9HBE4 30-162)
T1 construct: bought; also called rhIL-21; not shown: Fc of the bought reagent, not described
T1 sequence (Q9HBE4 30-162): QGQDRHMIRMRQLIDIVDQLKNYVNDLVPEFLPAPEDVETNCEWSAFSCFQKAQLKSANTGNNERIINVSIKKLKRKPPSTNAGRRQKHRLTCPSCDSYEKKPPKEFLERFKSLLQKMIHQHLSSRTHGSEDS
procedure_summary: SPR, Fab on captured rhIL-21-Fc
Recorded koff by entry

Some binders with recorded koff:
binder: ZAP122m9 Fab (Fab, V domains shown, Fab) VH: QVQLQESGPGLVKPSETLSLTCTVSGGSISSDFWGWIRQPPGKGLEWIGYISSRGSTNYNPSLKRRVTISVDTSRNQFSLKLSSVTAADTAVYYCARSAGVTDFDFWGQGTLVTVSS VL: DIQMTQSPSSVSASVGDRVTITCRASQGISSWLAWYQHKPGKAPKLLIYVASSLQSGVPSRFSGSGSGTDFTLTISSLQPEDFATYYCQQANSFALTFGGGTKVEIK
koff: 5.93e-05 s⁻¹
--
binder: ZAP122m17 Fab (Fab, V domains shown, Fab; also called clone m17) VH: QVQLQESGPGLVKPSETLSLTCTVSGGSISSDFWGWIRQPPGKGLEWIGYISSSGSTNYNPSLKRRVTISVDTSRNQFSLKLSSVTAADTAVYYCARSAGVTDFDFWGQGTLVTVSS VL: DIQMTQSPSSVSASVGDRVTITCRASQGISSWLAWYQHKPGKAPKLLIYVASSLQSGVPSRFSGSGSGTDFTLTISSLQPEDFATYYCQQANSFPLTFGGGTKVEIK
koff: 2.81e-05 s⁻¹

Entry ZAP122m12 Fab (Fab, V domains shown, Fab) VH: QVQLQESGPGLVKPSETLSLTCTVSGGSISSYFWGWIRQPPGKGLEWIGYISSRGSTNYNPSLKRRVTISVDTSRNQFSLKLSSVTAADTAVYYCARSAGVTDFDFWGQGTLVTVSS VL: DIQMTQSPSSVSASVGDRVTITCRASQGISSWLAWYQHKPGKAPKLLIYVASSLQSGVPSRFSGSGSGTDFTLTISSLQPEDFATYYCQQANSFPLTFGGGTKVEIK , koff reported as 0.00424 s⁻¹

Entry ZAP122m5 Fab (Fab, V domains shown, Fab) VH: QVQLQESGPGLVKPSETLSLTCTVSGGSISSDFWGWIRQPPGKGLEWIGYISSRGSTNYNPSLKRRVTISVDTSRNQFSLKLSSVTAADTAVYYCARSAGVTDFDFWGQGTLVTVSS VL: DIQMTQSPSSVSASVGDRVTITCRASQGISSWLAWYQHKPGKAPKLLIYVASSLQSGVPSRFSGSGSGTDFTLTISSLQPEDFATYYCQAANSFPLTFGGGTKVEIK , koff reported as ≤ 1e-05 s⁻¹

Entry ZAP122m1 Fab (Fab, V domains shown, Fab) VH: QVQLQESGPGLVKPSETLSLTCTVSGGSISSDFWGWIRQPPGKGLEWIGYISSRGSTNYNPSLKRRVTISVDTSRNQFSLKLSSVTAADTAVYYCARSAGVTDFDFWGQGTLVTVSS VL: DIQMTQSPSSVSASVGDRVTITCRASQGISSWLAWYYHKPGKAPKLLIYVASSLQSGVPSRFSGSGSGTDFTLTISSLQPEDFATYYCQQANSFPLTFGGGTKVEIK , koff reported as 1.91e-05 s⁻¹

Entry ZAP122m22 Fab (Fab, V domains shown, Fab) VH: QVQLQESGPGLVKPSETLSLTCTVSGGSISSDFWGWIRQPPGKGLEWIGYISSRGSTNYNPSLKRRVTISVDTSRNQFSLKLSSVTAADTAVYYCARSAGATDFDFWGQGTLVTVSS VL: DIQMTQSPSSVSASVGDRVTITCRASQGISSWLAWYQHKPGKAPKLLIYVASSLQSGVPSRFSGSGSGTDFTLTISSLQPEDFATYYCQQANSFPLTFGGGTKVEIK , koff reported as 0.0034 s⁻¹

Entry ZAP122m19 Fab (Fab, V domains shown, Fab) VH: QVQLQESGPGLVKPSETLSLTCTVSGGSISSDFWGWIRQPPGKGLEWIGYISSRGSTNYNPSLKRRVTISVDTSRNQFSLKLSSVTAADTAVYYCAASAGVTDFDFWGQGTLVTVSS VL: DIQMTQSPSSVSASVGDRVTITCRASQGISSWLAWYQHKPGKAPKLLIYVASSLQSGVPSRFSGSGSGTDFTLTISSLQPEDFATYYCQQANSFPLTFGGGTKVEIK , koff reported as 0.000775 s⁻¹

Entry ZAP122m2 Fab (Fab, V domains shown, Fab) VH: QVQLQESGPGLVKPSETLSLTCTVSGGSISSDFWGWIRQPPGKGLEWIGYISSRGSTNYNPSLKRRVTISVDTSKNQFSLKLSSVTAADTAVYYCARSAGVTDFDFWGQGTLVTVSS VL: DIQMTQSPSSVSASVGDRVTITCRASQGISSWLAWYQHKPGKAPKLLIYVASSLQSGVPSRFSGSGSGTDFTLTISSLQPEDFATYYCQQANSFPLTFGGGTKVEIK , koff reported as 1.23e-05 s⁻¹

Entry ZAP122m11 Fab (Fab, V domains shown, Fab) VH: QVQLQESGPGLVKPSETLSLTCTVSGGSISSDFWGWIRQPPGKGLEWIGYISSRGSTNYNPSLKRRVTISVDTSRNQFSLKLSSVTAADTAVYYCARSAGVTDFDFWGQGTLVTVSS VL: DIQMTQSPSSVSASVGDRVTITCRASQGISSWLAWYQHKPGKAPKLLIYVASSLQSGVPSRFSGSGSGTDFTLTISSLQPEDFATYYCQQANSFPLAFGGGTKVEIK , koff reported as 1.46e-05 s⁻¹

Entry ZAP122m8 Fab (Fab, V domains shown, Fab) VH: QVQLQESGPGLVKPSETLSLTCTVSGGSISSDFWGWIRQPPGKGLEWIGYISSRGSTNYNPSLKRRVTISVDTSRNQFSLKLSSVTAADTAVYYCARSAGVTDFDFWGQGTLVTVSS VL: DIQMTQSPSSVSASVGDRVTITCRASQGISSWLAWYQHKPGKAPKLLIYVASSLQSGVPSRFSGSGSGTDFTLTISSLQPEDFATYYCQQANSAPLTFGGGTKVEIK , koff reported as 0.00251 s⁻¹
